We begin with a simple list: items and their reported protein stability index.
B1: RHOBTB1 (parent)
chain: TFGDHHKDRRFAYGRSDVVVLCFS

# Variants of: B1
# method: protein stability index of a GFP-peptide fusion (GPS, HEK-293T) (PSI 1-6); higher = more stable;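 note: lentivirally expressed fusions sorted by FACS into six bins by GFP to DsRed ratio, PSI derived from sequencing read proportions per bin multiplied by bin number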
# recorded conditions: c terminus: a fixed tail appended
Lab note: jot the number down without any unit.

variant_notation=G14P value=3.26
variant_notation=V20Y value=1.75
variant_notation=R10H value=2.59
variant_notation=F11Y value=1.27

Reported protein stability index ( T1Q ) = 2.25

Reported protein stability index ( F2M ) = 1.81

Reported protein stability index ( H6S ) = 2.21
